Give measured protein stability index for each item. Keep answers brief.
B1: ZNF232 (parent)
chain: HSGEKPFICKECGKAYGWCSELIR

# Variants of: B1
# Assay Comment: protein stability index of a GFP-peptide fusion (GPS, HEK-293T) (PSI 1-6); higher = more stable;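 further: lentivirally expressed fusions sorted by FACS into six bins by GFP to DsRed ratio, PSI derived from sequencing read proportions per bin multiplied by bin number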
# Test Context: c terminus: a fixed tail appended
One number for each entry.

Solved entries:
Mutation String	Number
P6G	2.08
E11A	2.22
C9L	2.25
C9N	2.09

Answer for every listed entry: what is its protein stability index? The entries follow.
1. L22K
2. K10I
3. F7P
4. C19S

*A*
1.96
2.01
2.11
2.83

*Q* What does the record list as protein stability index for S2W ?
*A* 1.68

# credit: the supplement of paper PMC10567573
